assay: Thermodynamic solubility assay (modified shake flask, LC-MS/MS); details: Milli-Q water, pH=7, 25° C., 24 h; 3 separate determinations
measurement-label: Solubility

As a guide, the following entries are already answered.
molecule: COCCOc1cc(N)ccc1N [Compound N7, 2-(2-methoxyethoxy)benzene-1,4-diamine]
measurement-label: Solubility
value: 62 mg/mL
--
molecule: CCOCOc1cc(N)ccc1N [Compound N3, 2-(ethoxymethoxy)benzene-1,4-diamine]
measurement-label: Solubility
value: 65 + 3.6 mg/ml
--
molecule: Nc1ccc(N)c(OCC2CO2)c1 (stereo not drawn) [Compound N4]
measurement-label: Solubility
value: 70 + 4.6 mg/ml
--
molecule: COCOc1cc(N)ccc1N [Compound N2, 2-(methoxymethoxy)benzene-1,4-diamine]
measurement-label: Solubility
value: 90 + 2.6 mg/ml
--
molecule: COCCOCCOc1cc(N)ccc1N [Compound N5]
measurement-label: Solubility
value: 85 + 2.5 mg/ml
--
molecule: CC(O)COc1cc(N)ccc1N (stereo not drawn) [Compound N10, 1-(2,5-diaminophenoxy)propan-2-ol]
measurement-label: Solubility
value: 78 + 2.5 mg/ml

**Query** Let me know recorded Solubility for COC(COc1cc(N)ccc1N)OC [Compound N1] , thanks.
**Result** 85 + 4.0 mg/ml

**Query** Let me know recorded Solubility for Nc1ccc(N)c(OCCO)c1 [Compound N9, 2-(2,5-diaminophenoxy)ethan-1-ol] , thanks.
**Result** 72 + 3.4 mg/ml

**Query** Let me know recorded Solubility for Nc1ccc(N)c(OCOCO)c1 [Compound N8, ((2,5-diaminophenoxy)methoxy)methanol] , thanks.
**Result** 92 + 3.0 mg/ml

----------
test system: THP-1 cells; assay: MTT assay on THP-1 cells (CV75); assay type: cell-based, human; conditions: THP-1 cells, 24 h
measurement-label: CV75 (concentration affording 75% cell viability), 1 × CV75 (µg/mL)
Respond numerically; units are µg/mL and should not be typed.

As a guide, the following entries are already answered.
compound: CNCCOc1cc(N)ccc1N
measurement-unit: µg/mL
value: 54.3

compound: Nc1ccc(N)c(OCCO)c1
measurement-unit: µg/mL
value: 126

compound: CCC(=O)COc1cc(N)ccc1N
measurement-unit: µg/mL
value: 65.4

compound: COCCOCCOc1cc(N)ccc1N
measurement-unit: µg/mL
value: 68.3

compound: COC(COc1cc(N)ccc1N)OC
measurement-unit: µg/mL
value: 143.4

compound: CC(O)COc1cc(N)ccc1N (centres unmarked)
measurement-unit: µg/mL
value: 117

compound: Nc1ccc(N)cc1
measurement-unit: µg/mL
value: 65.4

**Query** Let me know recorded CV75 (concentration affording 75% cell viability), 1 × CV75 for COCc1cc(N)ccc1N , thanks.
**Result** 144.6

----------
assay: Skin permeation study, Franz diffusion cell; format: in vitro ADME, porcine; conditions: 1% w/v in deionized water, 8 h
measurement-label: Cumulative amount at 8th hour (μg/cm^2)
Respond numerically; units are μg/cm^2 and should not be typed.

As a guide, the following entries are already answered.
molecule: N#CCOc1cc(N)ccc1N
measurement-unit: μg/cm^2
Cumulative amount at 8th hour: 0.0145
//
molecule: COC(COc1cc(N)ccc1N)OC
measurement-unit: μg/cm^2
Cumulative amount at 8th hour: 0.0073
//
molecule: CCC(=O)COc1cc(N)ccc1N
measurement-unit: μg/cm^2
Cumulative amount at 8th hour: 0.00794
//
molecule: Nc1ccc(N)c(OCOCO)c1
measurement-unit: μg/cm^2
Cumulative amount at 8th hour: 0.00843
//
molecule: CNCCOc1cc(N)ccc1N
measurement-unit: μg/cm^2
Cumulative amount at 8th hour: 0.0106
//
molecule: Nc1ccc(N)c(OCC2CO2)c1 (stereo not shown)
measurement-unit: μg/cm^2
Cumulative amount at 8th hour: 0.0104

Turning now to a further molecule:
**Query** Let me know recorded Cumulative amount at 8th hour for CC(O)COc1cc(N)ccc1N (stereo not shown) , thanks.
**Result** 0.008

----------
Recovered in skin swabs listing for selected compounds.
Assay: Skin permeation study, Franz diffusion cell
Format: in vitro ADME, porcine
Conditions: mass balance, 8 h
Experimental: In each Franz cell, a piece of pig ear skin prepared to a thickness of −1 mm was clamped securely. […] The aliquot samples collected were subjected to 2-step extraction using 750 μL of dichloromethane (DCM). […] The compounds' steady state fluxes and permeability coefficients were then calculated by fitting the solution to Fick's […] of diffusion at the steady state (linear part) of each experimental cumulative amount curve.

As a guide, the following entries are already answered.
compound: N#CCOc1cc(N)ccc1N [Compound N6, 2-(2,5-diaminophenoxy)acetonitrile]
Recovered in skin swabs: 0.04 % of applied compound dose
//
compound: COCCOCCOc1cc(N)ccc1N [Compound N5]
Recovered in skin swabs: 0.06 % of applied compound dose
//
compound: CC(O)COc1cc(N)ccc1N (stereo not shown) [Compound N10, 1-(2,5-diaminophenoxy)propan-2-ol]
Recovered in skin swabs: 0.05 % of applied compound dose
//
compound: COCCOc1cc(N)ccc1N [Compound N7, 2-(2-methoxyethoxy)benzene-1,4-diamine]
Recovered in skin swabs: 0.09 % of applied compound dose
//
compound: Nc1ccc(N)c(OCC2CO2)c1 (stereo not shown) [Compound N4]
Recovered in skin swabs: 0.03 % of applied compound dose
//
compound: C=C(C)Oc1cc(N)ccc1N [Compound N12, 2-(prop-1-en-2-yloxy)benzene-1,4-diamine]
Recovered in skin swabs: 0.05 % of applied compound dose

**Query** Let me know recorded Recovered in skin swabs for CCOCOc1cc(N)ccc1N [Compound N3, 2-(ethoxymethoxy)benzene-1,4-diamine] , thanks.
**Result** 0.04 % of applied compound dose

**Query** Let me know recorded Recovered in skin swabs for COC(COc1cc(N)ccc1N)OC [Compound N1] , thanks.
**Result** 0.04 % of applied compound dose

**Query** Let me know recorded Recovered in skin swabs for CNCCOc1cc(N)ccc1N [Compound N13] , thanks.
**Result** 0.02 % of applied compound dose

**Query** Let me know recorded Recovered in skin swabs for Nc1ccc(N)c(OCOCO)c1 [Compound N8, ((2,5-diaminophenoxy)methoxy)methanol] , thanks.
**Result** 0.02 % of applied compound dose

**Query** Let me know recorded Recovered in skin swabs for Nc1ccc(N)c(OCCO)c1 [Compound N9, 2-(2,5-diaminophenoxy)ethan-1-ol] , thanks.
**Result** 0.03 % of applied compound dose

**Query** Let me know recorded Recovered in skin swabs for CCC(=O)COc1cc(N)ccc1N [Compound N11, 1-(2,5-diaminophenoxy)butan-2-one] , thanks.
**Result** 0.025 % of applied compound dose

**Query** Let me know recorded Recovered in skin swabs for COCOc1cc(N)ccc1N [Compound N2, 2-(methoxymethoxy)benzene-1,4-diamine] , thanks.
**Result** 0.05 % of applied compound dose

----------
assay: Hair nuance test; details: Type A (Non-oxidative) formulation

molecule: Nc1ccc(N)c(OCOCO)c1
eventual colour of bleached hair, Type A: Black
--
molecule: CCOCOc1cc(N)ccc1N [Compound N3, 2-(ethoxymethoxy)benzene-1,4-diamine]
eventual colour of bleached hair, Type A: Black

----------
Recovered in skin listing for selected molecules.
assay: Skin permeation study, Franz diffusion cell; type: in vitro ADME, porcine; conditions: mass balance, 8 h

molecule: CCC(=O)COc1cc(N)ccc1N
Recovered in skin: 0.06 % of applied compound dose
//
molecule: COCOc1cc(N)ccc1N
Recovered in skin: 0.04 % of applied compound dose
//
molecule: CNCCOc1cc(N)ccc1N
Recovered in skin: 0.03 % of applied compound dose
//
molecule: Nc1ccc(N)c(OCOCO)c1
Recovered in skin: 0.06 % of applied compound dose
//
molecule: C=C(C)Oc1cc(N)ccc1N
Recovered in skin: 0.02 % of applied compound dose
//
molecule: Nc1ccc(N)c(OCC2CO2)c1 (stereo not shown)
Recovered in skin: 0.02 % of applied compound dose
//
molecule: CCOCOc1cc(N)ccc1N [Compound N3, 2-(ethoxymethoxy)benzene-1,4-diamine]
Recovered in skin: 0.01 % of applied compound dose
//
molecule: N#CCOc1cc(N)ccc1N
Recovered in skin: 0.01 % of applied compound dose
//
molecule: COCCOc1cc(N)ccc1N
Recovered in skin: 0.03 % of applied compound dose
//
molecule: COCCOCCOc1cc(N)ccc1N
Recovered in skin: 0.04 % of applied compound dose

**Query** Let me know recorded Recovered in skin for COC(COc1cc(N)ccc1N)OC , thanks.
**Result** 0.05 % of applied compound dose

**Query** Let me know recorded Recovered in skin for CC(O)COc1cc(N)ccc1N (stereo not shown) , thanks.
**Result** 0.04 % of applied compound dose

**Query** Let me know recorded Recovered in skin for Nc1ccc(N)c(OCCO)c1 , thanks.
**Result** 0.05 % of applied compound dose
